Where do the numbers come from? From ChEMBL document CHEMBL3352345.

Test: Cytotoxicity against human MKN45 cells after 72 hrs by MTT assay
Format: functional, cell-based
Conditions: MKN-45, 72 h
Assay readout: IC50
Answer with the value and then the unit.

Query block: Can you share its IC50? I mean this molecule: CN(C)CCNc1nc(-c2ccc(NC(=O)Nc3ccc(F)cc3)cc2)nc2ccsc12
Result block: 330 nM

Query block: Can you share its IC50? I mean this molecule: CCN(CC)CCCNc1nc(-c2ccc(NC(=O)Nc3ccc(Cl)cc3)cc2)nc2ccsc12
Result block: 180 nM

Query block: Can you share its IC50? I mean this molecule: CN(C)CCNc1nc(-c2ccc(NC(=O)Nc3ccccc3Cl)cc2)nc2ccsc12
Result block: 850 nM

Query block: Can you share its IC50? I mean this molecule: CCN(CC)CCNc1nc(-c2ccc(NC(=O)Nc3ccccc3Cl)cc2)nc2ccsc12
Result block: 750 nM

Query block: Can you share its IC50? I mean this molecule: CCN(CC)CCCNc1nc(-c2ccc(NC(=O)Nc3ccc(Cl)cc3)cc2)nc2c(Cl)c(Cl)sc12
Result block: 720 nM

Query block: Can you share its IC50? I mean this molecule: CN(C)CCCNc1nc(-c2ccc(NC(=O)Nc3ccc(Cl)cc3Cl)cc2)nc2c(Cl)c(Cl)sc12
Result block: 2560 nM

Query block: Can you share its IC50? I mean this molecule: Cc1ccc(NC(=O)Nc2ccc(-c3nc(NCCN(C)C)c4sccc4n3)cc2)cc1
Result block: 2380 nM

Query block: Can you share its IC50? I mean this molecule: CCN(CC)CCCNc1nc(-c2ccc(NC(=O)Nc3ccc(F)cc3)cc2)nc2ccsc12
Result block: 470 nM

Query block: Can you share its IC50? I mean this molecule: CN(C)CCNc1nc(-c2ccc(NC(=O)Nc3ccc(Cl)cc3)cc2)nc2c(Cl)c(Cl)sc12
Result block: 910 nM

Query block: Can you share its IC50? I mean this molecule: CN(C)CCNc1nc(-c2ccc(NC(=O)Nc3ccc(Cl)cc3Cl)cc2)nc2ccsc12
Result block: 2360 nM

Query block: Can you share its IC50? I mean this molecule: CCN(CC)CCNc1nc(-c2ccc(NC(=O)Nc3ccc(Cl)cc3Cl)cc2)nc2c(Cl)c(Cl)sc12
Result block: 1770 nM

Query block: Can you share its IC50? I mean this molecule: CCN(CC)CCCNc1nc(-c2ccc(NC(=O)Nc3ccc(Cl)cc3Cl)cc2)nc2c(Cl)c(Cl)sc12
Result block: 5720 nM

Query block: Can you share its IC50? I mean this molecule: CN(C)CCCNc1nc(-c2ccc(NC(=O)Nc3ccccc3Cl)cc2)nc2c(Cl)c(Cl)sc12
Result block: 1330 nM

Query block: Can you share its IC50? I mean this molecule: CN(C)CCCNc1nc(-c2ccc(NC(=O)Nc3ccc(Cl)cc3Cl)cc2)nc2ccsc12
Result block: 2270 nM

Query block: Can you share its IC50? I mean this molecule: CCN(CC)CCCNc1nc(-c2ccc(NC(=O)Nc3ccccc3)cc2)nc2ccsc12
Result block: 980 nM

Query block: Can you share its IC50? I mean this molecule: CN(C)CCNc1nc(-c2ccc(NC(=O)Nc3ccc(F)cc3)cc2)nc2c(Cl)c(Cl)sc12
Result block: 1350 nM

Query block: Can you share its IC50? I mean this molecule: CCN(CC)CCCNc1nc(-c2ccc(NC(=O)Nc3ccccc3Cl)cc2)nc2ccsc12
Result block: 390 nM

Query block: Can you share its IC50? I mean this molecule: CCN(CC)CCCNc1nc(-c2ccc(NC(=O)Nc3ccc(C)cc3)cc2)nc2ccsc12
Result block: 1760 nM

Query block: Can you share its IC50? I mean this molecule: CCN(CC)CCNc1nc(-c2ccc(NC(=O)Nc3ccc(Cl)cc3Cl)cc2)nc2ccsc12
Result block: 1520 nM

Query block: Can you share its IC50? I mean this molecule: CS(=O)(=O)N1CCN(Cc2cc3nc(-c4cccc5[nH]ncc45)nc(N4CCOCC4)c3s2)CC1
Result block: 600 nM

Query block: Can you share its IC50? I mean this molecule: CN(C)CCNc1nc(-c2ccc(NC(=O)Nc3ccc(Cl)cc3Cl)cc2)nc2c(Cl)c(Cl)sc12
Result block: 3460 nM

Query block: Can you share its IC50? I mean this molecule: CN(C)CCNc1nc(-c2ccc(NC(=O)Nc3ccccc3)cc2)nc2ccsc12
Result block: 1120 nM

Query block: Can you share its IC50? I mean this molecule: CCN(CC)CCNc1nc(-c2ccc(NC(=O)Nc3ccc(C)cc3)cc2)nc2c(Cl)c(Cl)sc12
Result block: 1450 nM

Query block: Can you share its IC50? I mean this molecule: CCN(CC)CCNc1nc(-c2ccc(NC(=O)Nc3ccc(F)cc3)cc2)nc2c(Cl)c(Cl)sc12
Result block: 1370 nM

Query block: Can you share its IC50? I mean this molecule: CN(C)CCCNc1nc(-c2ccc(NC(=O)Nc3ccc(Cl)cc3)cc2)nc2c(Cl)c(Cl)sc12
Result block: 1530 nM

Query block: Can you share its IC50? I mean this molecule: CN(C)CCCNc1nc(-c2ccc(NC(=O)Nc3ccccc3F)cc2)nc2ccsc12
Result block: 730 nM

Query block: Can you share its IC50? I mean this molecule: CN(C)CCCNc1nc(-c2ccc(NC(=O)Nc3ccccc3Cl)cc2)nc2ccsc12
Result block: 690 nM

Query block: Can you share its IC50? I mean this molecule: CCN(CC)CCNc1nc(-c2ccc(NC(=O)Nc3ccccc3F)cc2)nc2ccsc12
Result block: 1040 nM

Query block: Can you share its IC50? I mean this molecule: CCN(CC)CCCNc1nc(-c2ccc(NC(=O)Nc3ccccc3)cc2)nc2c(Cl)c(Cl)sc12
Result block: 1640 nM

Query block: Can you share its IC50? I mean this molecule: CCN(CC)CCNc1nc(-c2ccc(NC(=O)Nc3ccc(Cl)cc3)cc2)nc2c(Cl)c(Cl)sc12
Result block: 890 nM

Query block: Can you share its IC50? I mean this molecule: CN(C)CCCNc1nc(-c2ccc(NC(=O)Nc3ccc(F)cc3)cc2)nc2c(Cl)c(Cl)sc12
Result block: 1120 nM

Query block: Can you share its IC50? I mean this molecule: CCN(CC)CCCNc1nc(-c2ccc(NC(=O)Nc3ccc(C)cc3)cc2)nc2c(Cl)c(Cl)sc12
Result block: 3320 nM

Query block: Can you share its IC50? I mean this molecule: CCN(CC)CCCNc1nc(-c2ccc(NC(=O)Nc3ccccc3Cl)cc2)nc2c(Cl)c(Cl)sc12
Result block: 1450 nM

Query block: Can you share its IC50? I mean this molecule: CN(C)CCNc1nc(-c2ccc(NC(=O)Nc3ccccc3F)cc2)nc2ccsc12
Result block: 530 nM

Query block: Can you share its IC50? I mean this molecule: CCN(CC)CCNc1nc(-c2ccc(NC(=O)Nc3ccccc3Cl)cc2)nc2c(Cl)c(Cl)sc12
Result block: 1130 nM

Query block: Can you share its IC50? I mean this molecule: CN(C)CCNc1nc(-c2ccc(NC(=O)Nc3ccc(Cl)cc3)cc2)nc2ccsc12
Result block: 250 nM

Query block: Can you share its IC50? I mean this molecule: CCN(CC)CCCNc1nc(-c2ccc(NC(=O)Nc3ccc(F)cc3)cc2)nc2c(Cl)c(Cl)sc12
Result block: 1700 nM

----------
Biological target: Serine/threonine-protein kinase mTOR (Homo sapiens)
Assay readout: IC50

Query block: Can you share its IC50? I mean this compound: CCN(CC)CCCNc1nc(-c2ccc(NC(=O)Nc3ccc(Cl)cc3)cc2)nc2ccsc12
Result block: > 10 µM
